Test system: OVCAR-3 ovarian
Experiment: NCI tumour cell line growth inhibition, 48 h
The reader will find reported TGI values listed item by item below.

molecule | TGI
COC(=O)C(Cc1cc(OC)c(OC)c(OC)c1)C(=O)OC | > 320 µM
CC(C)=CCC[C@]1(C)C=Cc2c(O)c3c(c(CC=C(C)C)c2O1)O[C@]12C(=C[C@@H]4CC1C(C)(C)O[C@@]2(C/C=C(/C)C(=O)O)C4=O)C3=O | 2.67 µM
CC(C)(CN1CCCCC1)C(=O)/C=C/c1ccc(/C=C/C(=O)C(C)(C)CN2CCCCC2)cc1 | 1.17 µM
N#Cc1nc(CCN2C(=O)c3ccccc3C2=O)oc1N | > 100 µM
C/C(=C1/N=C(c2cc([N+](=O)[O-])ccc2Cl)N(c2cccc(C)c2)C1=O)c1cc2ccccc2oc1=O | > 100 µM
O=c1c2c(=NCCN3CCCC3)cc3c(=O)n(CCCN4CCOCC4)c(=O)c4c(-c5ccc(CN6CCCC6)cc5)cc(c(O)n1CCCN1CCOCC1)c2c4-3 | 0.109 µM
O=C1C[C@H](c2ccccc2)O[C@@H](c2ccccc2)C1 | > 100 µM
O=C(N/C(=C\c1ccc(Cl)cc1)c1nc2ccccc2[nH]1)c1ccccc1 | 49 µM
COc1ccc(N=Nc2c(C)c(C#N)c(=S)n(C3OC(CO)C(O)C(O)C3O)c2-c2ccccc2)cc1 (centres undefined) | 55.3 µM
CN(C)CCCc1cccc2[nH]c3c(c12)CN(C)CC3 | > 100 µM
COCC1CCCN1c1ccc(C=N/C(C#N)=C(\N)C#N)cc1 (centres undefined) | > 100 µM
CC(=O)C(=[N+]=[N-])C(=O)N1CCOC1=O | > 10 µM
COc1ccccc1NC(=S)NN=C(C)c1cccc(C(C)=NNC(=S)Nc2ccccc2OC)n1 | > 100 µM
O=C1CSC(/C=C/c2ccccc2)N1c1nc2cc3sc(N4C(=O)CSC4/C=C/c4ccccc4)nc3cc2s1 (centres undefined) | > 100 µM
CC(C)(O)[C@@H]1CC[C@@]2(C)CCCC(O)C2(O)C1 (some centres undefined) | > 100 µM
Cc1ccc(S(=O)(=O)OCCn2cnc3nc(NC(=O)c4ccccc4)[nH]c(=O)c32)cc1 | > 100 µM
N#Cc1cc(C#N)c(N)nc1N | > 100 µM
O=c1ccc2nc3cc(Br)ccc3sc-2c1 | > 100 µM
CC(=O)C1=C(C)N2C(=NC3=C(CCc4ccccc43)C2c2ccc(F)cc2)S1 (centres undefined) | > 100 µM
COc1cc(NS(C)(=O)=O)ccc1Nc1cc[nH]c2ccc3nccc3c12 | 29.4 µM
Cc1ccc(S(=O)(=O)NC(=O)NCCc2cnc[nH]2)cc1 | > 100 µM
CC1=Nc2ccccc2S/C1=C(/C)NNS(=O)(=O)c1ccc(C)cc1 | > 100 µM
COc1cc(Nc2nc3cc(N)cc(N)c3nc2-c2ccccc2)cc(OC)c1OC | 37.1 µM
CC(=O)O[C@H]1C(=O)[C@@]2(C)[C@H]([C@H](OC(=O)c3cccc([N+](=O)[O-])c3)[C@]3(O)C[C@H](OC(=O)[C@H](O)[C@@H](NC(=O)c4ccccc4)c4ccccc4)C(C)=C1C3(C)C)[C@]1(OC(C)=O)CO[C@@H]1C[C@@H]2O | 0.0183 µM
COc1cc(OC)c2c(c1)OC(c1ccccc1)CC2=O (centres undefined) | > 10 µM
O=c1[nH]c(Cc2ccccc2)nc2c1sc1nc3ccccc3n12 | > 100 µM
COc1ccc(C2NC(=S)Nc3c2c(=O)oc2c3ccc3ccccc32)cc1 (centres undefined) | > 100 µM
CC(C)(Br)C(=O)N1CCN(C(c2ccccc2)c2ccccc2)CC1 | 36.8 µM
N#CC12Cc3cc4c(cc3-c3cccc(c31)CCN2C(=O)c1ccccc1)OCO4 (centres undefined) | > 100 µM
CC(=O)c1ccc2c(c1)c1cc(C(C)=O)ccc1n2CCNC(C)C | 3.91 µM
CC(C)=CCC[C@@H](C)/C=C/C=C(\C)C(=O)CC[C@@H]1CC[N@+]2(C)CCCC[C@H]12 | > 100 µM
Cc1nc(N)c(N2CCN(C(=O)O)CC2)c(=O)[nH]1 | > 100 µM
NS(=O)(=O)c1ccc(Nc2cc(-c3cccc(O)c3)[nH]n2)cc1 | > 25 µM
CN(C)C=Nc1ccn(CCO)c(=O)n1 | > 100 µM
CCN(Cc1ccc(C)cc1)c1ccc(CO)c(Cl)c1 | 5.31 µM
CS(=O)(=O)Nc1cncc(-c2ccc3ncnc(Nc4ccc(F)c(Cl)c4)c3c2)c1 | 7.19 µM
CC1=CC(=O)CC(C)(C)C1/C=C/C(C)=C/C=C/C(C)=C/C=C/C=C(C)/C=C/C=C(C)/C=C/C1C(C)=CC(=O)CC1(C)C (centres undefined) | > 100 µM
CC(C)C1=CC(=O)C(C)(C2C(O)CC3(C)C4CC=C5C(CCC(OC6OC(CO)C(O)C(O)C6OC6OC(C)C(O)C(O)C6O)C5(C)C)C4(C)C(=O)CC23C)O1 (centres undefined) | > 100 µM
Cn1cc(C(=O)c2ccccc2)c2ccccc2c1=O | > 100 µM
